Source of measurements: ChEMBL document CHEMBL4393718

# Tested on: Bacillus cereus
# protocol-description: Activity index, ratio of IZ for test compound to IZ for streptomycin for antimicrobial activity against Bacillus cereus MTCC 8558 incubated for 24 hrs by well diffusion method
# Assay type: functional
reported-property: Activity_index

{"molecule": "CCOc1ccc2c(c1)SC1=NC(C)=C(C(=O)NNC(=O)c3ccncc3)C(c3ccccn3)N12 (centres undefined)", "target-desc": "Bacillus cereus", "reported-property": "Activity_index", "observed-result": 0.75}
{"molecule": "CC1=C(C(=O)NNC(=O)c2ccncc2)C(c2ccccn2)N2C(=N1)Sc1cc([N+](=O)[O-])ccc12 (centres undefined)", "target-desc": "Bacillus cereus", "reported-property": "Activity_index", "observed-result": 1}
{"molecule": "CC1=C(C(=O)NNC(=O)c2ccncc2)C(c2ccccn2)N2C(=N1)Sc1cc(Br)ccc12 (centres undefined)", "target-desc": "Bacillus cereus", "reported-property": "Activity_index", "observed-result": 0.75}
{"molecule": "CC1=C(C(=O)NNC(=O)c2ccncc2)C(c2ccccn2)N2C(=N1)Sc1cc(C)ccc12 (centres undefined)", "target-desc": "Bacillus cereus", "reported-property": "Activity_index", "observed-result": 0.792}
{"molecule": "COc1cccc2c1N1C(=NC(C)=C(C(=O)NNC(=O)c3ccncc3)C1c1ccccn1)S2 (centres undefined)", "target-desc": "Bacillus cereus", "reported-property": "Activity_index", "observed-result": 1.083}
{"molecule": "CC1=C(C(=O)NNC(=O)c2ccncc2)C(c2ccccn2)N2C(=N1)Sc1cc(OC(F)(F)F)ccc12 (centres undefined)", "target-desc": "Bacillus cereus", "reported-property": "Activity_index", "observed-result": 0.792}
{"molecule": "COc1ccc2c(c1)SC1=NC(C)=C(C(=O)NNC(=O)c3ccncc3)C(c3ccccn3)N12 (centres undefined)", "target-desc": "Bacillus cereus", "reported-property": "Activity_index", "observed-result": 0.625}
{"molecule": "CC1=C(C(=O)NNC(=O)c2ccncc2)C(c2ccccn2)N2C(=N1)Sc1cccc(Cl)c12 (centres undefined)", "target-desc": "Bacillus cereus", "reported-property": "Activity_index", "observed-result": 0.667}

Could you now consider this next molecule?
Tested on Bacillus cereus: CC1=C(C(=O)NNC(=O)c2ccncc2)C(c2ccccn2)N2C(=N1)Sc1cc(F)ccc12 (centres undefined) . Observed Activity_index: 0.5

###

# System: Mycobacterium tuberculosis
# protocol-description: Antitubercular activity against Mycobacterium tuberculosis H37Rv assessed as reduction in viable colony forming unit at 1000 ug/ml incubated for 42 days by Lowensteine-Jensen method relative to control
# Format: functional
reported-property: inhibition at 1000 µg/mL (%)
Please respond with the number in % and leave the unit unwritten.

{"compound": "CC1=C(C(=O)NNC(=O)c2ccncc2)C(c2ccccn2)N2C(=N1)Sc1cc(Br)ccc12 (stereo not given)", "inhibition at 1000 µg/mL (%)": 73.2}
{"compound": "NNC(=O)c1ccncc1 [ISONIAZID]", "inhibition at 1000 µg/mL (%)": 99.2}
{"compound": "CC1=C(C(=O)NNC(=O)c2ccncc2)C(c2ccccn2)N2C(=N1)Sc1ccccc12 (stereo not given)", "inhibition at 1000 µg/mL (%)": 69.9}
{"compound": "COc1ccc2c(c1)SC1=NC(C)=C(C(=O)NNC(=O)c3ccncc3)C(c3ccccn3)N12 (stereo not given)", "inhibition at 1000 µg/mL (%)": 49.6}
{"compound": "CC1=C(C(=O)NNC(=O)c2ccncc2)C(c2ccccn2)N2C(=N1)Sc1cc(F)ccc12 (stereo not given)", "inhibition at 1000 µg/mL (%)": 80.5}

Could you now consider this next compound?
Measured inhibition at 1000 µg/mL of CC1=C(C(=O)NNC(=O)c2ccncc2)C(c2ccccn2)N2C(=N1)Sc1cc(O)ccc12 (stereo not given) : 68.3

###

# System: Bacillus cereus
# protocol-description: Activity index, ratio of IZ for test compound to IZ for streptomycin for antimicrobial activity against Bacillus cereus MTCC 8558 incubated for 24 hrs by well diffusion method
# Assay type: functional
Please use met for Activity_index under 0.9 and not met for everything else, ties included.

Study these solved cases before continuing.
{"compound": "CC1=C(C(=O)NNC(=O)c2ccncc2)C(c2ccccn2)N2C(=N1)Sc1cc(Cl)ccc12 (stereo not given)", "group": "met"}
{"compound": "CC1=C(C(=O)NNC(=O)c2ccncc2)C(c2ccccn2)N2C(=N1)Sc1cc(C)c(C)cc12 (stereo not given)", "group": "met"}
{"compound": "CC1=C(C(=O)NNC(=O)c2ccncc2)C(c2ccccn2)N2C(=N1)Sc1cccc(C)c12 (stereo not given)", "group": "not met"}

Kindly consider the entry below.
stdin: Please determine if CC1=C(C(=O)NNC(=O)c2ccncc2)C(c2ccccn2)N2C(=N1)Sc1cc(O)ccc12 (stereo not given) is below 0.9 in terms of Activity_index.
stdout: not met

###

# reported inhibition zone (IZ); entries follow
# System: Escherichia coli
# protocol-description: Antimicrobial activity against Escherichia coli MTCC 1610 incubated for 24 hrs by well diffusion method
# Type: functional
# do not omit the unit; it follows the number

Example entries and their recorded answers appear below.
{"molecule": "COc1ccc2c(c1)SC1=NC(C)=C(C(=O)NNC(=O)c3ccncc3)C(c3ccccn3)N12 (stereo not given)", "reported-property": "inhibition zone (IZ)", "observed-result": "15 mm"}
{"molecule": "COc1cccc2c1N1C(=NC(C)=C(C(=O)NNC(=O)c3ccncc3)C1c1ccccn1)S2 (stereo not given)", "reported-property": "inhibition zone (IZ)", "observed-result": "17 mm"}
{"molecule": "CCOc1ccc2c(c1)SC1=NC(C)=C(C(=O)NNC(=O)c3ccncc3)C(c3ccccn3)N12 (stereo not given)", "reported-property": "inhibition zone (IZ)", "observed-result": "13 mm"}
{"molecule": "CC1=C(C(=O)NNC(=O)c2ccncc2)C(c2ccccn2)N2C(=N1)Sc1cc(Cl)ccc12 (stereo not given)", "reported-property": "inhibition zone (IZ)", "observed-result": "18 mm"}
{"molecule": "CC1=C(C(=O)NNC(=O)c2ccncc2)C(c2ccccn2)N2C(=N1)Sc1cccc(Cl)c12 (stereo not given)", "reported-property": "inhibition zone (IZ)", "observed-result": "22 mm"}

Measured inhibition zone (IZ) of CC1=C(C(=O)NNC(=O)c2ccncc2)C(c2ccccn2)N2C(=N1)Sc1cc(C)c(C)cc12 (stereo not given) : 15 mm

Measured inhibition zone (IZ) of CC1=C(C(=O)NNC(=O)c2ccncc2)C(c2ccccn2)N2C(=N1)Sc1cc(O)ccc12 (stereo not given) : 24 mm

###

# Test system: Mycobacterium tuberculosis
# protocol-description: Antitubercular activity against Mycobacterium tuberculosis H37Rv assessed as reduction in viable colony forming unit at 1000 ug/ml incubated for 42 days by Lowensteine-Jensen method relative to control
# Assay type: functional
# reported inhibition at 1000 µg/mL; entries follow
Please respond with the number in % and leave the unit unwritten.

Example entries and their recorded answers appear below.
{"molecule": "CC1=C(C(=O)NNC(=O)c2ccncc2)C(c2ccccn2)N2C(=N1)Sc1cc(C)ccc12 (centres undefined)", "value-unit": "%", "inhibition at 1000 µg/mL": 54.5}
{"molecule": "CC1=C(C(=O)NNC(=O)c2ccncc2)C(c2ccccn2)N2C(=N1)Sc1cccc(Cl)c12 (centres undefined)", "value-unit": "%", "inhibition at 1000 µg/mL": 81.3}

Tested on Mycobacterium tuberculosis: CC1=C(C(=O)NNC(=O)c2ccncc2)C(c2ccccn2)N2C(=N1)Sc1cc(C)c(C)cc12 (centres undefined) . Observed inhibition at 1000 µg/mL: 82.1

Tested on Mycobacterium tuberculosis: CC1=C(C(=O)NNC(=O)c2ccncc2)C(c2ccccn2)N2C(=N1)Sc1cc(Cl)ccc12 (centres undefined) . Observed inhibition at 1000 µg/mL: 71.5

###

# Test system: Escherichia coli
# protocol-description: Antimicrobial activity against Escherichia coli MTCC 1610 incubated for 24 hrs by well diffusion method
# Format: functional
Tick condition met if inhibition zone (IZ) is 20 mm or greater. Tick condition not met if inhibition zone (IZ) is less than 20 mm.

Study these solved cases before continuing.
{"molecule": "CC1=C(C(=O)NNC(=O)c2ccncc2)C(c2ccccn2)N2C(=N1)Sc1cc([N+](=O)[O-])ccc12 (stereo not drawn)", "group": "condition not met"}
{"molecule": "CC1=C(C(=O)NNC(=O)c2ccncc2)C(c2ccccn2)N2C(=N1)Sc1cc(F)ccc12 (stereo not drawn)", "group": "condition met"}
{"molecule": "CC1=C(C(=O)NNC(=O)c2ccncc2)C(c2ccccn2)N2C(=N1)Sc1cc(C)ccc12 (stereo not drawn)", "group": "condition met"}
{"molecule": "CN[C@@H]1[C@H](O[C@H]2[C@H](O[C@H]3[C@H](O)[C@@H](O)[C@H](N=C(N)N)[C@@H](O)[C@@H]3N=C(N)N)O[C@@H](C)[C@]2(O)C=O)O[C@@H](CO)[C@H](O)[C@H]1O [STREPTOMYCIN]", "group": "condition met"}
{"molecule": "CC1=C(C(=O)NNC(=O)c2ccncc2)C(c2ccccn2)N2C(=N1)Sc1cccc(C)c12 (stereo not drawn)", "group": "condition not met"}
{"molecule": "CC1=C(C(=O)NNC(=O)c2ccncc2)C(c2ccccn2)N2C(=N1)Sc1ccccc12 (stereo not drawn)", "group": "condition not met"}

stdin: Please tell me: is the molecule CC1=C(C(=O)NNC(=O)c2ccncc2)C(c2ccccn2)N2C(=N1)Sc1cc(Br)ccc12 (stereo not drawn) at or over 20 mm in terms of inhibition zone (IZ)?
stdout: condition not met

stdin: Please tell me: is the molecule CC1=C(C(=O)NNC(=O)c2ccncc2)C(c2ccccn2)N2C(=N1)Sc1cc(OC(F)(F)F)ccc12 (stereo not drawn) at or over 20 mm in terms of inhibition zone (IZ)?
stdout: condition not met
